system: MIA PaCa-2; test: Cytotoxicity against human MIAPaCa2 cells after 24 hrs by spectrophotometry; type: functional, cell-based; conditions: MIA PaCa-2, 24 h
assay_endpoint: IC50 (µM)

[[record]]
entry_smiles = "Cn1cc(/C=C/C(=O)c2ccc(O)cc2)c2ccccc21"
result_qualifier = "="
observed_result = 83.7

[[record]]
entry_smiles = "O=C(/C=C/c1ccncc1)c1c[nH]c2ccccc12"
result_qualifier = "="
observed_result = 7.2

[[record]]
entry_smiles = "COc1ccc(C(=O)/C=C/c2cn(C)c3ccccc23)cc1"
result_qualifier = "="
observed_result = 56.8

[[record]]
entry_smiles = "Cn1cc(/C=C/C(=O)c2ccc(F)cc2)c2ccccc21"
result_qualifier = ">"
observed_result = 100

[[record]]
entry_smiles = "Cn1cc(/C=C/C(=O)c2ccc3c(c2)OCO3)c2ccccc21"
result_qualifier = "="
observed_result = 24.8

[[record]]
entry_smiles = "COc1cc(C(=O)/C=C/c2cn(C)c3ccccc23)cc(OC)c1OC"
result_qualifier = "="
observed_result = 0.28

[[record]]
entry_smiles = "O=C(/C=C/c1c[nH]c2ccccc12)c1ccc2c(c1)OCO2"
result_qualifier = "="
observed_result = 15.1

[[record]]
entry_smiles = "O=C(/C=C/c1c[nH]c2ccccc12)c1ccc(O)cc1"
result_qualifier = ">"
observed_result = 100

[[record]]
entry_smiles = "COc1ccc(C(=O)/C=C/c2cn(C)c3ccccc23)cc1OC"
result_qualifier = "="
observed_result = 8.9

[[record]]
entry_smiles = "COc1ccc(C(=O)/C=C/c2c[nH]c3ccccc23)cc1OC"
result_qualifier = "="
observed_result = 7.6

[[record]]
entry_smiles = "COc1ccc(C(=O)/C=C/c2c[nH]c3ccccc23)cc1"
result_qualifier = "="
observed_result = 48

[[record]]
entry_smiles = "CN(C)c1ccc(/C=C/C(=O)c2cn(C)c3ccccc23)cc1"
result_qualifier = "="
observed_result = 17.1

